Measured MIC, listed per entry.
Test system: Cryptococcus neoformans
MEASUREMENT PROTOCOL: Antifungal activity against Fluconazole-resistant Cryptococcus neoformans ATCC 32719R assessed as fungal growth inhibition
Type: functional
Give just the number in µg/mL; leave the unit off.

Worked cases, answers included:
Cc1ccc([N+](=O)[O-])cc1NC(=O)/C=C/C(=O)Nc1ccc2c(c1)C(=O)NC1(CCSC1)N2 (stereo unspecified); 32
OC(Cn1cncn1)(Cn1cncn1)c1ccc(F)cc1F; 256
O=C(/C=C/C(=O)Nc1ccc(Cl)cc1Cl)Nc1ccc2c(c1)C(=O)NC1(CCSC1)N2 (stereo unspecified); 32
O=C(/C=C/C(=O)Nc1ccc2c(c1)C(=O)NC1(CCSC1)N2)Nc1ccc(Br)cc1 (stereo unspecified); 8
O=C(/C=C/C(=O)Nc1ccc2c(c1)C(=O)NC1(CCSC1)N2)Nc1ccc([N+](=O)[O-])cc1 (stereo unspecified); 4

Let's switch to this compound now.
Per the records, this compound ( O=C(/C=C/C(=O)Nc1ccccc1[N+](=O)[O-])Nc1ccc2c(c1)C(=O)NC1(CCSC1)N2 (stereo unspecified) ) has MIC equal to 8
